Assay: in vitro
Settings: human, hela cells, % viability
Can you tell me viability at 28.5 h, 10 µM for the items I'm about to list?
Hi! Could you send only the number? It should be in %, unit omitted.

Bench note: what viability at 28.5 h, 10 µM did COc1ccc([C@@]23CC/C(=N/NS(=O)(=O)c4ccc(C)cc4)C[C@@H]2N(Cc2ccccc2)CC3)cc1OC [CBK002717] show?
95.5

Bench note: what viability at 28.5 h, 10 µM did Cc1ccc(-c2nnc(NCc3cnn(C)c3C)o2)c(C)c1 [CBK306166] show?
88.2

Bench note: what viability at 28.5 h, 10 µM did Cc1cc(C)n2nc(CC(=O)NCCCn3cc(Cl)cn3)nc2n1 [CBK307276] show?
84.3

Bench note: what viability at 28.5 h, 10 µM did CN1CCN(c2cc3ncccc3cc2F)CC1 [CBK066904] show?
105

Bench note: what viability at 28.5 h, 10 µM did COc1cc(S(=O)(=O)Oc2ccc(OCc3ccccc3)cc2)ccc1Cl [CBK264132] show?
92.2

Bench note: what viability at 28.5 h, 10 µM did CC(Cn1cccn1)NCc1cn(C)c2cc(F)ccc12 (stereo not shown) [CBK282220] show?
88.4

Bench note: what viability at 28.5 h, 10 µM did CC(C)C(=O)N1CC2(CCN(Cc3ncc[nH]3)CC2)c2ccccc21 [CBK126731] show?
109

Bench note: what viability at 28.5 h, 10 µM did CS(=O)(=O)NC1CCN(CCc2ccc(F)c(F)c2)C1 (stereo not shown) [CBK305078] show?
95.3

Bench note: what viability at 28.5 h, 10 µM did COc1ccc(NC2=NN(c3ccccc3)C(=O)C2)cc1 [CBK288085] show?
104

Bench note: what viability at 28.5 h, 10 µM did O=C(CSCc1ccc(Cl)cc1Cl)Nc1ccc(O)cc1C(=O)O [CBK275322] show?
95

Bench note: what viability at 28.5 h, 10 µM did COc1cc(C(=O)N2CCN(C(=O)c3ccco3)CC2)cc(OC)c1OC [CBK144476] show?
113

Bench note: what viability at 28.5 h, 10 µM did CCOc1ccccc1NC(=O)c1cc2cccnc2n(Cc2ccc(Cl)cc2)c1=O [CBK294395] show?
109

Bench note: what viability at 28.5 h, 10 µM did Cc1nc2ccccc2nc1SCc1nc(N)nc(N2CCCCC2)n1 [CBK270218] show?
92.2

Bench note: what viability at 28.5 h, 10 µM did Cc1cc(C)nc(NC(=O)OCCc2ccncc2)c1 [CBK138233] show?
93.9

Bench note: what viability at 28.5 h, 10 µM did CC[C@@H]1CCCCN1C(=O)c1ccc(Cl)c(C)c1 [CBK084565] show?
91.6

Bench note: what viability at 28.5 h, 10 µM did CS(=O)(=O)Nc1cccc(C2=NN(C(=O)CCC(=O)O)C(c3cccc(F)c3)C2)c1 (stereo not shown) [CBK268804] show?
85

Bench note: what viability at 28.5 h, 10 µM did OCCN1CC2(CCN(Cc3ncc[nH]3)CC2)c2ccccc21 [CBK126763] show?
102

Bench note: what viability at 28.5 h, 10 µM did COc1cc(Nc2nc(-c3cccc(C(=O)NCCN(C)C)c3)cn3ccnc23)cc(OC)c1OC [CBK066250] show?
89

Bench note: what viability at 28.5 h, 10 µM did N#Cc1c(-c2ccc(Cl)cc2)c[nH]c1N [CBK019323] show?
104

Bench note: what viability at 28.5 h, 10 µM did Cc1cc(COc2nccnc2N2CCN(CCCn3c(=O)[nH]c4ccccc43)CC2)no1 [CBK084199] show?
107

Bench note: what viability at 28.5 h, 10 µM did Cn1nccc1C(=O)NC(Cc1cccs1)c1ccccn1 (stereo not shown) [CBK285207] show?
96.1

Bench note: what viability at 28.5 h, 10 µM did CCn1c(=O)[nH]c2cc(C(=O)NCCc3ccccc3)ccc2c1=O [CBK265773] show?
95.2

Bench note: what viability at 28.5 h, 10 µM did Nc1nonc1C(=NCc1ccccc1)NO [CBK261109] show?
105

Bench note: what viability at 28.5 h, 10 µM did C[C@H](c1ccccc1)n1c(=O)[nH]c2ncc(-c3cccc4ccccc34)nc21 [CBK064241] show?
101

Bench note: what viability at 28.5 h, 10 µM did Cc1ccc(S(=O)(=O)NC(C)(C)CN2CCN(C(c3ccccc3)c3ccccc3)CC2)cc1 [CBK262799] show?
90

Entry source: paper PMC12040169
